# experimental-target: Steroid 17-alpha-hydroxylase/17,20 lyase (Rattus norvegicus)
# Sequence (P11715 whole entry): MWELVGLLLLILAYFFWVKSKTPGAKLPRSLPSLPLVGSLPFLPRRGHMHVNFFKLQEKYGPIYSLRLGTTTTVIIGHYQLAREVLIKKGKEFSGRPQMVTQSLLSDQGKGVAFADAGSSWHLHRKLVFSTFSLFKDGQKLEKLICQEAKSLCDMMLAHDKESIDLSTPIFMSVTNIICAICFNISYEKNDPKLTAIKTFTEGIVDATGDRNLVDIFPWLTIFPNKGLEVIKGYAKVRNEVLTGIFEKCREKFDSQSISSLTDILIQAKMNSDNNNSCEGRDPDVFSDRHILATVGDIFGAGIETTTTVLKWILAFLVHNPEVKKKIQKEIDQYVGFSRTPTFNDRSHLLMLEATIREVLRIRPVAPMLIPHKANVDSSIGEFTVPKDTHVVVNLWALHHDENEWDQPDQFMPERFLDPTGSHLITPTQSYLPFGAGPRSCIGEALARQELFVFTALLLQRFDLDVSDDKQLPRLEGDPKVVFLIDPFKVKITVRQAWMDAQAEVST
# experiment-notes: Inhibition of rat Cytochrome P450 17
pIC50: −log10 of the molar value.
readout-label: pIC50

[[record]]
compound = "CC12CCC(O)CC1=CCC1C2CCC2(C)C(c3c[nH]cn3)=CCC12 (stereo unspecified)"
readout_label = "pIC50"
test_value = 6.74


---

# experimental-target: Steroid 17-alpha-hydroxylase/17,20 lyase (Rattus norvegicus)
# experiment-notes: Evaluated for the inhibitory activity towards Cytochrome P450 17 rat enzyme using testicular microsome at 25 uM of substrate (progesterone)
# Design: species or system Testis
Attribute: IC50
readout-label: IC50 (µM)

[[record]]
compound = "C[C@]12CC[C@H](O)C=C1CC[C@H]1C3CC/C(=C/C=N\\O)[C@@]3(C)CC[C@@H]12 (stereo partly drawn)"
measurement_qualifier = "="
test_value = 0.14

[[record]]
compound = "C/C(CC1CCC2C3CC=C4CC(O)CCC4(C)C3CCC12C)=N\\O (stereo not drawn)"
measurement_qualifier = "="
test_value = 9.8

[[record]]
compound = "C[C@]12CC[C@H](O)CC1=CC[C@H]1C3CC/C(=C/C=N\\O)[C@@]3(C)CC[C@@H]12 (stereo partly drawn)"
measurement_qualifier = "="
test_value = 0.52

[[record]]
compound = "CC12CCC(=O)C=C1CCC1C2CCC2(C)C(C/C=N/O)CCC12 (stereo not drawn)"
measurement_qualifier = "="
test_value = 0.3

[[record]]
compound = "C/C(=N/O)C1=CCC2C3CCC4=CC(=O)CCC4(C)C3CCC12C (stereo not drawn)"
measurement_qualifier = ">"
test_value = 125

[[record]]
compound = "CC12CCC(O)CC1=CCC1C2CCC2(C)/C(=C/C=N/O)CCC12 (stereo not drawn)"
measurement_qualifier = ">"
test_value = 125

[[record]]
compound = "C/C(=N/O)C1=CCC2[C@@H]3CC=C4C[C@@H](O)CC[C@]4(C)[C@H]3CC[C@]12C (stereo partly drawn)"
measurement_qualifier = ">"
test_value = 125

[[record]]
compound = "CC12CCC(O)CC1=CCC1C2CCC2(C)C(C/C=N/O)CCC12 (stereo not drawn)"
measurement_qualifier = "="
test_value = 2.76

[[record]]
compound = "C/C(=N/O)[C@H]1CCC2C3CCC4=CC(=O)CCC4(C)C3CCC21C (stereo partly drawn)"
measurement_qualifier = ">"
test_value = 125

[[record]]
compound = "C/C(CC1CCC2C3CCC4=CC(=O)CCC4(C)C3CCC12C)=N\\O (stereo not drawn)"
measurement_qualifier = "="
test_value = 3.6

[[record]]
compound = "C/C(=N/O)[C@H]1CC=C2[C@@H]3CC=C4C[C@@H](O)CC[C@]4(C)[C@H]3CC[C@@]21C"
measurement_qualifier = "="
test_value = 125

[[record]]
compound = "C/C(=N/O)C1=CC=C2C3CCC4=CC(=O)CCC4(C)C3CCC12C (stereo not drawn)"
measurement_qualifier = ">"
test_value = 125

[[record]]
compound = "C/C(=N/O)C1CC=C2C3CC=C4CC(O)CCC4(C)C3CCC21C (stereo not drawn)"
measurement_qualifier = ">"
test_value = 125

